Recorded values, source patent US20220177604A1.

Each item that follows carries a reported EC50.
target: T1, recombinant Motavizumab human IgE (rMota-hIgE) (human, UniProt P01854 1-428); test: hIgE binding ELISA, pH 7.4
T1 construct: also called Recombinant IgE (argenx)
T1 sequence (P01854 other isoform, or with tags, fused parts or gaps limits assumed, form in doubt): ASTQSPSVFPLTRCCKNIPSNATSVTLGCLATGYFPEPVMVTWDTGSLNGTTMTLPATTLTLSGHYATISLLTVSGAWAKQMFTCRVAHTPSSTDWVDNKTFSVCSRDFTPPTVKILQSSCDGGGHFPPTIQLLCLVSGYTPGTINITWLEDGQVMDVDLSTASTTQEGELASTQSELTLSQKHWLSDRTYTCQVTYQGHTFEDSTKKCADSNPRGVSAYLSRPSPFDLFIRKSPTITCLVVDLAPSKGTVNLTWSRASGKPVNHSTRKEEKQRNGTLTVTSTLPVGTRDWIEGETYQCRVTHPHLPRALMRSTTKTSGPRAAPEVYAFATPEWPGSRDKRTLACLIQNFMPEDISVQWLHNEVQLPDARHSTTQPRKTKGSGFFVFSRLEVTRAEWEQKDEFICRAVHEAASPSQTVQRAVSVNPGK
endpoint-label: EC50 (µg/mL)

INSERT INTO measurements (binder, endpoint_label, numeric_value) VALUES
  ('OmaVH15G55H - VL3D28HS31H (antibody, V domains shown) VH: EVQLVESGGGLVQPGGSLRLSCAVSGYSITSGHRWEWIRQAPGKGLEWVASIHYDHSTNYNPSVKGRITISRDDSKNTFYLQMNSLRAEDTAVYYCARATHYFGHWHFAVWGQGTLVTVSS VL: DIQLTQSPSSLSASVGDRVTITCRASQSVDYHGDHYMNWYQQKPGKAPKLLIEWGSYLRSGVPSRFSGSGSGTDFTLTISSLQPEDFATYYCQQNAEDPYTFGQGTKVEIK', 'EC50', 0.0154),
  ('OMA VH15 - VL3 (antibody, V domains shown) VH: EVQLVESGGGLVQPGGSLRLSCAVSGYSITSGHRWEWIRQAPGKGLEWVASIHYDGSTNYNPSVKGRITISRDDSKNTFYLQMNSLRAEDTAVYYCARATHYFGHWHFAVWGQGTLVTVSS VL: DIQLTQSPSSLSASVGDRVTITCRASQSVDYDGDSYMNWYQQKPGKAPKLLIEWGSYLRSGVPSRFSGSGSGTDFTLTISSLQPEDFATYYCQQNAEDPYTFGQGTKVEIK', 'EC50', 0.0202),
  ('OmaVH15G55HW100b - VL3D28H (antibody, V domains shown, also called OmaVH15G55HW100b VL3D25H) VH: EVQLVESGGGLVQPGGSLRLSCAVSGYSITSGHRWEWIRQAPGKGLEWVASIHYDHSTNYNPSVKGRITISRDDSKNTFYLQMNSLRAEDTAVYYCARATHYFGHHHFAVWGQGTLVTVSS VL: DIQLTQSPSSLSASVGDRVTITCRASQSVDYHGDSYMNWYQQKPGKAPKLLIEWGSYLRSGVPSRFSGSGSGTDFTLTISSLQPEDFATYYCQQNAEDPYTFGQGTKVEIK', 'EC50', 0.0135),
  ('CL-2C mAb 37 (antibody, V domains shown, also called VKWT + VH33H100CH) VH: QVQLVQSGAEVMKPGSSVKVSCKASGYTFSWYHLEWVRQAPGHGLEWMGEIDPGTFTTNYNEKFKARVTFTADTSTSTAYMELSSLRSEDTAVYYCARFSHFSGSNHDYFDYWGQGTLVTVSS VL: EIVMTQSPATLSVSPGERATLSCRASQSIGTNIHWYQQKPGQAPRLLIYYASESISGIPARFSGSGSGTEFTLTISSLQSEDFAVYYCQQSWSWPTTFGGGTKVEIK', 'EC50', 0.0149),
  ('Oma VH15W100b - VL3D28H (antibody, V domains shown, also called Oma VH15W100b VL3D25H) VH: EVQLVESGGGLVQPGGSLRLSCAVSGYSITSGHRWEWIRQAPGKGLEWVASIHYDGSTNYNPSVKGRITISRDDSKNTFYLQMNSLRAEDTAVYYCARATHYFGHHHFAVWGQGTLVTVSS VL: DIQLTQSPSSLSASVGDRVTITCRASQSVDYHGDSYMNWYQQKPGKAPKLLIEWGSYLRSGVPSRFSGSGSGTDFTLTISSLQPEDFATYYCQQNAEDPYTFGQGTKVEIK', 'EC50', 0.015),
  ('Oma VH15W100b - VL3S31H (antibody, V domains shown) VH: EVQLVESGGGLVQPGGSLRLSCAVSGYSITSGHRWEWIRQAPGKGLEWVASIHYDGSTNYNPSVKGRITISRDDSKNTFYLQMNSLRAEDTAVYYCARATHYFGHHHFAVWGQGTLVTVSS VL: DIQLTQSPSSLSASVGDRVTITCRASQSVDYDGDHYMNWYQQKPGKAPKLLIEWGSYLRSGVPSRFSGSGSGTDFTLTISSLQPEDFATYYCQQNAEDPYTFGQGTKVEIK', 'EC50', 0.0152);
